B1: library; numbered along this chain (parent)
chain: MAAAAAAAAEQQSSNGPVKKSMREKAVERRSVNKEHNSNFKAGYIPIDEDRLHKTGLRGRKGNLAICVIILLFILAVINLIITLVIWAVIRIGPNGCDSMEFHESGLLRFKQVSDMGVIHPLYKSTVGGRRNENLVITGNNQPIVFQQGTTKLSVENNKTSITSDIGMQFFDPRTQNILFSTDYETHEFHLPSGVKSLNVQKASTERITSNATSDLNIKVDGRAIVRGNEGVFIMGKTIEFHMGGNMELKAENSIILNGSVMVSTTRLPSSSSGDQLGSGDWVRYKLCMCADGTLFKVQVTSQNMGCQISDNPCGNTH

- Variants of: B1
- experimental_details: SGCB cell-surface expression functional score (HA stain, bin4 vs bin1, normalised to synonymous) (log10 ratio); higher = more cell-surface SGCB (functional)
measure_name: SGCB cell-surface expression functional score (log10)
Reply with just the number.

Use these answered entries as a reference point.
| variant_id | data_value |
| --- | --- |
| N157A | 0.08 |
| V118Y | -0.32 |
| D281N | 0.25 |
| Q201Y | -0.31 |
| T213E | 0.86 |

Reported SGCB cell-surface expression functional score (log10), variant M247V : ____ 0.47

Reported SGCB cell-surface expression functional score (log10), variant S99A : ____ -0.01

Reported SGCB cell-surface expression functional score (log10), variant I45N : ____ 0.15

Reported SGCB cell-surface expression functional score (log10), variant A65I : ____ 0.15
